Sourced from ChEMBL document CHEMBL3751783

Give measured IC50 for each item. Keep answers brief.
- TARGET OR SYSTEM: GABA transporter 2 (Mus musculus, UniProt P31651)
- Sequence (P31651 whole entry): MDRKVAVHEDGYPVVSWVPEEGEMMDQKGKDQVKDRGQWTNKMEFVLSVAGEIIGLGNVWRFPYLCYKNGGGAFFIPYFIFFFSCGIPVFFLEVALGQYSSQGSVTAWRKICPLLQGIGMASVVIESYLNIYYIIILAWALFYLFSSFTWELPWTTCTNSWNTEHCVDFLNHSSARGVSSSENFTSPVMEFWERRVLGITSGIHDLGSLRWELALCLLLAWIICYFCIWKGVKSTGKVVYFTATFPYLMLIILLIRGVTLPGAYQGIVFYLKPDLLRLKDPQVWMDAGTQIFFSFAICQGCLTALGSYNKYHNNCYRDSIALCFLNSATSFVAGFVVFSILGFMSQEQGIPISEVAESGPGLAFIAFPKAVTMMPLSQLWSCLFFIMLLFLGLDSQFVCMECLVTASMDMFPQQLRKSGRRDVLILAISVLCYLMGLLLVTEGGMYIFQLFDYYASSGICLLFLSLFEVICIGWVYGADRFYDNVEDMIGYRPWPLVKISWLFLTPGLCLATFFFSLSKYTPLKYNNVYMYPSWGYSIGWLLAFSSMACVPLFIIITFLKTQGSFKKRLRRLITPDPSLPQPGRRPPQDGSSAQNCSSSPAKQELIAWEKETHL
- PROTOCOL TEXT: Inhibition of mouse BGT1 mediated [3]GABA uptake expressed in HEK293 cells after 3 mins by scintillation counting

Please review the following examples before continuing.
What value of IC50 has been recorded for this entry: O=C1CCC2(CCCCC2)N1
> 5 mM

Quick check: IC50 of CCOC(=O)C1CCCN(CCC(=O)N2CCCC23CCCCC3)C1 (stereo not drawn) ?
> 5 mM

Let's switch to this compound now.
Requested field: IC50. Item: O=C1CCC2(CCCCC2=O)N1 (stereo not drawn)
> 1 mM

====

- TARGET OR SYSTEM: Sodium- and chloride-dependent GABA transporter 1 (Mus musculus, UniProt P31648)
- PROTOCOL TEXT: Inhibition of mouse GAT1 mediated [3]GABA uptake expressed in HEK293 cells after 3 mins by scintillation counting
PARAMETER MEASURED: IC50

// worked examples, IC50 included
GET /values?readout=IC50&item= O=C(CCN1CCCC1)N1CCCC12CCCCC2
> 5 mM

What measured IC50 goes with O=C1CCC2(CCCCC2)N1 ?
> 5 mM

Which IC50 is reported for this compound? O=C(O)C1=CCCNC1
0.0209 mM

Reported IC50, compound CCOC(=O)C1CCCN(CCC(=O)N2C(=O)C=CC23CCCC32OCCO2)C1 (configuration not stated) : ____
> 1 mM

Returns the measured IC50 for the input compound. Input: C=CC(=O)N1CCCC12CCCCC2
> 5 mM

Requested field: IC50. Item: CCOC(=O)C1CCCN(CCC(=O)N2CCCC23CCCCC3)C1 (configuration not stated)
> 5 mM

Okay, next one:
Tell me the measured IC50 of C1CCC2(CC1)CCCN2 , please.
> 5 mM
